Target: T1, human 5T4 on cells (human) (UniProt Q13641)
T1 sequence (looked up): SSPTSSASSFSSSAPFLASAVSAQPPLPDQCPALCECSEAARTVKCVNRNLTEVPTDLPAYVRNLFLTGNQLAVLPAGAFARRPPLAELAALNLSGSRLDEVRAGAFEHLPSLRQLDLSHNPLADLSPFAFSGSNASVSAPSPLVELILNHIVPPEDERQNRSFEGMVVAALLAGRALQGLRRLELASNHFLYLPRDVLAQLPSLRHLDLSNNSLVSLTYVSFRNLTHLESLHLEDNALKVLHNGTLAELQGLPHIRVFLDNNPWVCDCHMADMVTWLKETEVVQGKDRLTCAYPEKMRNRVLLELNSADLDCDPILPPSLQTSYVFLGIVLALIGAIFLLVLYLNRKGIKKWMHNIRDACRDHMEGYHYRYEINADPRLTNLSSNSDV
Assay: FACS, CHO cells over expressing human 5T4
QUANTITY NAME: EC50 (read off the curve) (nM)

- CD3x5T4-IM50xNKG2A (protein, part only; not given: anti-CD3 Fab, anti-NKG2A scFv, linkers, not shown: another chain or arm of the molecule; small tags and cut ends) VH: QVQLVQSGAEVKKPGASVKVSCKASGYPFTDYYMNWVRQAPGRGLEWIGVFNPYNGDTRYTQKFKDKATLTIDKSISTAYMELNRLRSDDTAVYYCARLRLLYDTSEYYVMDYWGQGTTVTVSS VL: ENVLTQSPATLSLSPGERATLSCSASSSVNYMHWYQQKPGQAPRLLIYDTSKLASGIPARFSGSGSGTDYTLTISSLEPEDFAVYYCFQGSGYPYTFGGGTKVEIK: 5
- CD3x5T4-IM49xNKG2A (protein, part only; not given: anti-CD3 Fab, anti-NKG2A scFv, linkers, not shown: another chain or arm of the molecule; small tags and cut ends) VH: QVQLVQSGAEVKKPGASVKVSCKASGYTFTDYYMNWVRQAPGRGLEWIGVFNPYNGDTRYTQKFKDRATLTIDKSISTAYMELSRLRSDDTAVYYCARLRLLYDTSEYYVMDYWGQGTTVTVS VL: ENVLTQSPATLSLSPGERATLSCSASSSVNYMHWYQQKPGQAPRLLIYDTSKLASGIPARFSGSGSGTDYTLTISSLEPEDFAVYYCFQGSGYPYTFGGGTKVEIK: 5
- CD3x5T4-IM34xNKG2A (protein, part only; not given: anti-CD3 Fab, anti-NKG2A scFv, linkers, not shown: another chain or arm of the molecule; small tags and cut ends) VH: AVQLVQSGAEVKKPGASVKVSCKASGYTFTDYYMNWVRQAPGQGLEWMGVFNPYNGDTRYTQKFKDKVTMTIDKSTSTVYMELNSLRSEDTAVYYCARLRLLYDTSEYYVMDYWGQGTTVTVSS VL: ENVLTQSPATLSLSPGERATLSCSASSSVNYMHWYQQKPGQAPRLLIYDTSKLASGIPARFSGSGSGNDFTLTISSLEPEDFAVYYCFQGSGYPYTFGGGTKVEIK: 6
- CD3x5T4-IM51xNKG2A (protein, part only; not given: anti-CD3 Fab, anti-NKG2A scFv, linkers, not shown: another chain or arm of the molecule; small tags and cut ends) VH: QVQLVQSGAEVKKPGASVKVSCKASGYTFTDYYMNWVRQAPGQGLEWMGVFNPYNGDTRYTQKFKDRVTMTRDTSISTAYMELSRLRSDDTAVYYCARLRLLYDTSEYYVMDYWGQGTTVTVSS VL: ENVLTQSPATLSLSPGERATLSCSASSSVNYMHWYQQKPGQSPRLLIYDTSKLASGIPARFSGSGSGTDYTLTISSLEPEDFAVYFCFQGSGYPYTFGGGTKVEIK: 5
- CD3X5T4_cl-16XNKG2A (protein, part only; not given: anti-CD3 Fab, anti-NKG2A scFv, linkers, not shown: another chain or arm of the molecule; small tags and cut ends) VH: AVQLQQSGPVRVKPGASVKMSCKASGYPFTDYYMNWVKQSHGRSLDWIGVFNPYNGDTRYTQKFKDKATLTIDKSSSTAYMELNSLTSEDSAVYYCARLRLLYDTSEYYVMDYWGQGTSVTVSS VL: ENVLTQSPAIMSASPGEKVTMTCSASSSVNYMHWYQQKSNTSPKLWIYDTSKLASGVPGRFSGSGSGNSYSLTISSMEAEDVATYFCFQGSGYPYTFGGGTKLEIK: 3
